# SYSTEM: UniProtKB P52333
# Sequence (P52333 whole entry): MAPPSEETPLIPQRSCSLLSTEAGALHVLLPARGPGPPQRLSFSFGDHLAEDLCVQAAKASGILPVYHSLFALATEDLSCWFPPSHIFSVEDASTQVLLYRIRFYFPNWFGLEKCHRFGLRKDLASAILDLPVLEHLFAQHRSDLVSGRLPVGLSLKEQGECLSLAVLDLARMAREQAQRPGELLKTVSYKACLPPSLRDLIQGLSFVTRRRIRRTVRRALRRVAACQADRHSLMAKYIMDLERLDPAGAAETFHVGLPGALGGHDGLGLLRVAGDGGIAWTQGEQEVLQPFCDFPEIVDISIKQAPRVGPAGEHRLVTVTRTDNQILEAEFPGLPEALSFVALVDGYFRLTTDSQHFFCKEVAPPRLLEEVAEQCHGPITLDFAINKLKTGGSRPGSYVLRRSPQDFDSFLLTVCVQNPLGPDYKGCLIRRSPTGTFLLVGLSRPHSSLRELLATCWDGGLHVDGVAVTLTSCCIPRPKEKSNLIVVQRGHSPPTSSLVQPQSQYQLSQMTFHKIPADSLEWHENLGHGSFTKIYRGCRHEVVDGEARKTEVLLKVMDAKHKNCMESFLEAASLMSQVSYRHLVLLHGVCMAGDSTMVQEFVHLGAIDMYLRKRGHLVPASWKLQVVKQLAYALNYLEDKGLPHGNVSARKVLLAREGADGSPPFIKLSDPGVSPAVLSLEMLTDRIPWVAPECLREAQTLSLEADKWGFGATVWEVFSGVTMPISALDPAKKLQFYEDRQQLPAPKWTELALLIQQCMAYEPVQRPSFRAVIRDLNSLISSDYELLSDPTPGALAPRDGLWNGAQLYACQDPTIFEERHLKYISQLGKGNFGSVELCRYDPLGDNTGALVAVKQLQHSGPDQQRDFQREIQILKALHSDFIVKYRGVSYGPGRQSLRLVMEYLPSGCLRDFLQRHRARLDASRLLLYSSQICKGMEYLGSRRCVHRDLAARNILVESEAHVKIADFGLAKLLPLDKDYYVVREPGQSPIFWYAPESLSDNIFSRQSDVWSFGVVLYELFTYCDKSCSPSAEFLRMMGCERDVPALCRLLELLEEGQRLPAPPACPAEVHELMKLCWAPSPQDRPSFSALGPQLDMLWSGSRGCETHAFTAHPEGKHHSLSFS
# ASSAY TEXT: Inhibition of human recombinant GST-tagged JAK3 cytoplasmic domain (781 to 1124 residues) expressed in baculovirus expression system incubated for 1 hr by FRET-based Z'-Lyte assay
OBSERVABLE: IC50 (µM)

P = O=CC1=CCC[C@@H](C(=O)O)[C@]2(C1)Oc1ccc(O)cc1C2=O
Q = O=CC1=CCC[C@@H](C(=O)O)[C@@]2(C1)Oc1ccc(O)cc1C2=O
INPUT: Param pair: P , Q . Output: the one whose IC50 is numerically greater. Write down the label of the entry you select.
OUTPUT: Q
